System: NCI-H226 lung
Experiment: NCI tumour cell line growth inhibition, 48 h
Quantity name: TGI

>  <Molecule>
CC(C)OP(=O)(OC(C)C)c1ccc2c(c1)OCCOCCOCCOCCO2

>  <Assay target>
NCI-H226 lung

>  <Quantity name>
TGI

>  <Reported value>
> 100 µM

$$$$
>  <Molecule>
COc1ccc(-c2nnc3n(Cc4ccccc4)c4ccccc4n3c2=O)cc1

>  <Assay target>
NCI-H226 lung

>  <Quantity name>
TGI

>  <Reported value>
97.4 µM

$$$$
>  <Molecule>
CC(C)(C)OC(=O)NCCC(=O)NC1(c2cc3ccccc3s2)CCCCC1

>  <Assay target>
NCI-H226 lung

>  <Quantity name>
TGI

>  <Reported value>
42.4 µM

$$$$
>  <Molecule>
Cc1ccc2c(c1)C1(OC(=O)c3ccccc31)c1ccc(F)cc1O2 (centres undefined)

>  <Assay target>
NCI-H226 lung

>  <Quantity name>
TGI

>  <Reported value>
85.8 µM

$$$$
>  <Molecule>
COc1ccc(/C=C/C(=N/NC(=O)N/N=C(/C=C/c2ccc(OC)cc2)C(C)(C)CN2CCCCC2)C(C)(C)CN2CCCCC2)cc1

>  <Assay target>
NCI-H226 lung

>  <Quantity name>
TGI

>  <Reported value>
3.02 µM

$$$$
>  <Molecule>
CCN(CC)CCOc1ccc(/C=C2\C[C@H]3[C@H]4CC=C5C[C@@H](O)CC[C@]5(C)[C@H]4CC[C@]3(C)[C@H]2O)cc1OC

>  <Assay target>
NCI-H226 lung

>  <Quantity name>
TGI

>  <Reported value>
16 µM

$$$$
>  <Molecule>
CCN(Cc1ccccc1Cl)c1ccc(CO)c(Cl)c1

>  <Assay target>
NCI-H226 lung

>  <Quantity name>
TGI

>  <Reported value>
0.122 µM

$$$$
>  <Molecule>
O=C1C(=O)c2ccccc2C(O)=C1CCCc1ccc(C2CCCC2)cc1

>  <Assay target>
NCI-H226 lung

>  <Quantity name>
TGI

>  <Reported value>
20.5 µM

$$$$
>  <Molecule>
CCOC(=O)/C(N=Nc1ccc(-n2c(C)nc3ccc(Br)cc3c2=O)cc1)=C(/C)O

>  <Assay target>
NCI-H226 lung

>  <Quantity name>
TGI

>  <Reported value>
> 100 µM

$$$$

###

Tested on: HOP-62 NSCLC
Experiment: NCI tumour cell line growth inhibition, 48 h
Threshold check on TGI: at or above 10 µM gives Met, strictly below gives Not met.

>  <Molecule>
COc1ccc2c(c1)C1OCCNC1CC2 (stereo not given)

>  <Classification>
Met

$$$$
>  <Molecule>
COc1cccc(-n2cc(-c3nc(Nc4cc(C)[nH]n4)c4ccccc4n3)nn2)c1

>  <Classification>
Not met

$$$$
>  <Molecule>
COc1cc2oc(-c3ccc(O)cc3O)c(CC=C(C)C)c(=O)c2c(O)c1/C=C/C(C)C

>  <Classification>
Not met

$$$$
>  <Molecule>
Cc1cccc2nc3cccc(C(=O)NCCNCCNCCNC(=O)c4cccc5nc6cccc(C)c6nc45)c3nc12

>  <Classification>
Not met

$$$$
>  <Molecule>
O=C(O)C1CCC(=O)N1S(=O)(=O)c1ccccc1 (stereo not given)

>  <Classification>
Met

$$$$
>  <Molecule>
NC1=NN(c2ccccc2)C(=O)C1/C(=N\NC(=O)c1cc2ccccc2cc1O)C(=O)Nc1cccc(C(F)(F)F)c1 (stereo not given)

>  <Classification>
Met

$$$$
>  <Molecule>
O=C(N=Nc1c(O)[nH]c2ccccc12)c1oc2ccccc2c1CN1CCN(c2ccccc2)CC1

>  <Classification>
Met

$$$$
>  <Molecule>
Cc1c(/C=N/NC(=S)Nc2ccccc2)c(=O)n(-c2ccccc2)n1C

>  <Classification>
Met

$$$$
>  <Molecule>
CSc1cc(Br)ccc1-n1c(C(=O)c2ccccc2)c(SC)n(-c2ccccc2)c1=O

>  <Classification>
Met

$$$$
>  <Molecule>
CC(C)(C)OC(=O)NCCC(=O)NC1(c2cc3ccccc3s2)CCCCC1

>  <Classification>
Met

$$$$

###

System: CAKI-1 renal
Experiment: NCI tumour cell line growth inhibition, 48 h
Item-by-item account of TGI
Quantity name: TGI

>  <Compound>
CCC(=O)NC(Nc1cccc(F)c1)(C(F)(F)F)C(F)(F)F

>  <Quantity name>
TGI

>  <Reported value>
93.9 µM

$$$$
>  <Compound>
O=c1c(C2=NCCC2)c(-c2ccc[nH]2)[nH]n1-c1ccccc1

>  <Quantity name>
TGI

>  <Reported value>
> 100 µM

$$$$
>  <Compound>
CCOc1ccc(/C(C=O)=C(\Cl)c2ccc(OC)c(OC)c2)cc1

>  <Quantity name>
TGI

>  <Reported value>
> 100 µM

$$$$
>  <Compound>
COC(=O)/C=C(/C(=O)OC)c1cc2ccc3c([nH]c4ccccc43)c(C)c-2c1

>  <Quantity name>
TGI

>  <Reported value>
> 100 µM

$$$$
>  <Compound>
COc1cccc2c3ccccc3c3nc[nH]c3c12

>  <Quantity name>
TGI

>  <Reported value>
> 100 µM

$$$$
>  <Compound>
O=C(Nc1c(C(=O)NC2CCCCC2)[nH]c(=O)[nH]c1=O)c1ccc(Cl)cc1

>  <Quantity name>
TGI

>  <Reported value>
> 100 µM

$$$$
>  <Compound>
NS(=O)(=O)c1ccc(NCc2cnc3ccccc3n2)cc1

>  <Quantity name>
TGI

>  <Reported value>
> 100 µM

$$$$
>  <Compound>
COC1=C(Br)C(O)C2(C=C1Br)CC(C(=O)NCCCCNC(=O)C1=NOC3(C=C(Br)C(OC)=C(Br)C3O)C1)=NO2 (stereo not given)

>  <Quantity name>
TGI

>  <Reported value>
> 100 µM

$$$$
>  <Compound>
CC(=O)OC12c3ccccc3-c3ccccc3C1C(C(=O)O)C2(Cl)C(=O)O (stereo not given)

>  <Quantity name>
TGI

>  <Reported value>
> 10 µM

$$$$
>  <Compound>
O=c1c2c(c3ccccc3n1-c1ccccc1)NC(=S)NC2c1ccc(Cl)cc1 (stereo not given)

>  <Quantity name>
TGI

>  <Reported value>
27.1 µM

$$$$
>  <Compound>
c1cc(CSSCc2ccncc2)ccn1

>  <Quantity name>
TGI

>  <Reported value>
> 100 µM

$$$$
>  <Compound>
N.N.O=P([O-])([O-])CN(CCN(CP(=O)([O-])[O-])CP(=O)([O-])[O-])CP(=O)([O-])[O-].[Pt+2]

>  <Quantity name>
TGI

>  <Reported value>
> 100 µM

$$$$
>  <Compound>
Cc1cc(C)nc(SCC(=O)OC2CC(C)CCC2C(C)C)n1 (stereo not given)

>  <Quantity name>
TGI

>  <Reported value>
48.6 µM

$$$$
>  <Compound>
O=S1(=O)NC2CCC3NS(=O)(=O)NC4CCC(N1)N4S(=O)(=O)N23 (stereo not given)

>  <Quantity name>
TGI

>  <Reported value>
> 100 µM

$$$$
>  <Compound>
CSc1nc2c(nc(N)n2C2OC(COC(C)=O)C(OC(C)=O)C(OC(C)=O)C2OC(C)=O)c(=O)n1C (stereo not given)

>  <Quantity name>
TGI

>  <Reported value>
> 100 µM

$$$$
>  <Compound>
Nn1c(CCCCCCCCc2nnc(COc3ccccc3)n2N)nnc1COc1ccccc1

>  <Quantity name>
TGI

>  <Reported value>
> 100 µM

$$$$
>  <Compound>
Cc1cc(=O)[nH]c2cc(NC(=O)C(CCCN=C(N)N)NC(=O)OCc3ccccc3)ccc12 (stereo not given)

>  <Quantity name>
TGI

>  <Reported value>
> 100 µM

$$$$
>  <Compound>
NC(=O)c1ncn(CCN2CCN(C(=O)NCCCCCCNC(=O)N3CCN(CCn4cnc(C(N)=O)c4N)CC3)CC2)c1N

>  <Quantity name>
TGI

>  <Reported value>
> 100 µM

$$$$
>  <Compound>
COc1cc2nc(-c3ccc(Cl)cc3)cc(OCCCN3CCCC3)c2cc1OC

>  <Quantity name>
TGI

>  <Reported value>
4.15 µM

$$$$
>  <Compound>
CC(C)(C)CNC(=O)NCn1cc(-c2ccccc2)nn1

>  <Quantity name>
TGI

>  <Reported value>
> 100 µM

$$$$

###

Test system: HL-60(TB) leukemia
Experiment: NCI tumour cell line growth inhibition, 48 h
Item-by-item account of TGI
Quantity name: TGI (µM)

>  <Compound>
O=C(O)CCNC(=O)c1cc(N(CCBr)CCBr)c([N+](=O)[O-])cc1[N+](=O)[O-]

>  <Quantity name>
TGI

>  <Value qualifier>
>

>  <Reported value>
100

$$$$
>  <Compound>
N#Cc1cc([N+](=O)[O-])ccc1NC(=O)C(F)(F)F

>  <Quantity name>
TGI

>  <Value qualifier>
>

>  <Reported value>
100

$$$$
>  <Compound>
CSCC[C@H](NC(=O)[C@H](CC(C)C)NC(=O)[C@@H](Cc1ccccc1)NC(=O)CNC(=O)[C@@H](NC(=O)[C@H](C)NC(=O)[C@H](Cc1c[nH]c2ccccc12)NC(=O)[C@H](CCC(N)=O)NC(=O)[C@H](N)CC(N)=O)C(C)C)C(N)=O

>  <Quantity name>
TGI

>  <Value qualifier>
>

>  <Reported value>
12.5

$$$$
>  <Compound>
O=c1c2cccc(F)c2sc2c(N3CCNCC3)nc3ccccc3c12

>  <Quantity name>
TGI

>  <Value qualifier>
=

>  <Reported value>
3.44

$$$$
>  <Compound>
CSc1ccc(OCC2OC2O)cc1 (centres undefined)

>  <Quantity name>
TGI

>  <Value qualifier>
>

>  <Reported value>
83.5

$$$$
>  <Compound>
CC(=O)OC1CC2(C)OC(Cc3ccccc32)O1 (centres undefined)

>  <Quantity name>
TGI

>  <Value qualifier>
>

>  <Reported value>
100

$$$$
>  <Compound>
Cc1ccc2c(c1)C1(OC(=O)c3ccccc31)c1ccc(F)cc1O2 (centres undefined)

>  <Quantity name>
TGI

>  <Value qualifier>
=

>  <Reported value>
51

$$$$
>  <Compound>
O=C(NNc1ccc(F)cc1)C1CCC(CNS(=O)(=O)c2ccc(Cl)c(Cl)c2)CC1 (centres undefined)

>  <Quantity name>
TGI

>  <Value qualifier>
=

>  <Reported value>
9.57

$$$$
>  <Compound>
O=[N+]1ON=C(c2ccccc2)C1=C1C(c2c(-c3ccccc3)no[n+]2[O-])=NON1[O-]

>  <Quantity name>
TGI

>  <Value qualifier>
=

>  <Reported value>
7.52

$$$$

# credit: PubChem BioAssay (NCI)
